# TESTED TARGET: LukSF (Staphylococcus aureus)
# ASSAY TEXT: cell-based or functional assay
MEASUREMENT LABEL: IC50 Fold loss vs. WT (LukSF) (fold)
Give the value, in units of fold, as a plain number.

Reference set (3 entries):
SAN481-T-YTE (antibody, V domains shown, also called QD3; SAN481VH28T-YTE) VH: QLQLVESGGGAVQPGRSLKLSCAASGFTFSTYAMHWVRQAPGRGLEWVAVTSFDGSNEYYIDSVKGRFTISRDNTKNTLYLQMTGLRVEDTALYFCARDEYTGGWYSVGYWGQGTLVTVSS VL: QSVLTQPPSASGTPGQRVTISCSGNSYNIGSNSVYWYQQFPGTAPKLLISRSIQRPSGVPDRFSGSKSVTSASLAISGLRSEDEADYYCAAWDDSLRAWVFGGGTKLTVLG | 1.04
SAN481-SY-YTE (antibody, V domains shown, also called QD2; SAN481VL26S32Y-YTE) VH: QLQLVESGGGAVQPGRSLKLSCAASGFNFSTYAMHWVRQAPGRGLEWVAVTSFDGSNEYYIDSVKGRFTISRDNTKNTLYLQMTGLRVEDTALYFCARDEYTGGWYSVGYWGQGTLVTVSS VL: QSVLTQPPSASGTPGQRVTISCSGSSYNIGSNYVYWYQQFPGTAPKLLISRSIQRPSGVPDRFSGSKSVTSASLAISGLRSEDEADYYCAAWDDSLRAWVFGGGTKLTVLG | 1.14
SAN481-TF-YTE (antibody, V domains shown, also called QD4; SAN481-VH28T100E-YTE) VH: QLQLVESGGGAVQPGRSLKLSCAASGFTFSTYAMHWVRQAPGRGLEWVAVTSFDGSNEYYIDSVKGRFTISRDNTKNTLYLQMTGLRVEDTALYFCARDEYTGGFYSVGYWGQGTLVTVSS VL: QSVLTQPPSASGTPGQRVTISCSGNSYNIGSNSVYWYQQFPGTAPKLLISRSIQRPSGVPDRFSGSKSVTSASLAISGLRSEDEADYYCAAWDDSLRAWVFGGGTKLTVLG | 5.07

Data request, read-out IC50 Fold loss vs. WT (LukSF), for SAN481-SYT-YTE (antibody, V domains shown, also called QD5) VH: QLQLVESGGGAVQPGRSLKLSCAASGFTFSTYAMHWVRQAPGRGLEWVAVTSFDGSNEYYIDSVKGRFTISRDNTKNTLYLQMTGLRVEDTALYFCARDEYTGGWYSVGYWGQGTLVTVSS VL: QSVLTQPPSASGTPGQRVTISCSGSSYNIGSNYVYWYQQFPGTAPKLLISRSIQRPSGVPDRFSGSKSVTSASLAISGLRSEDEADYYCAAWDDSLRAWVFGGGTKLTVLG
1.01

Sourced from patent US20200109190A1
